Where do the numbers come from? From ChEMBL document CHEMBL3526112.

test system: Plasma; experiment: Cmax in Sprague-Dawley rat plasma at 400 mg/kg, iv; assay type: ADME, organism-based; set-up: dose 400 mg/kg, route intravenous; details: in vivo
Parameter: Cmax (µM)
Quick reminder: number only, in µM, skip the unit.

Record request: Cmax value, item O=C([O-])CCCO.[Na+] [SODIUM OXYBATE]
8400

====

test: Tmax in Sprague-Dawley rat plasma at 400 mg/kg, iv; assay type: ADME, organism-based; set-up: dose 400 mg/kg, route intravenous
Parameter: Tmax

Record request: Tmax value, item O=C([O-])CCCO.[Na+] [SODIUM OXYBATE]
5 min

====

experiment: Tmax in Sprague-Dawley rat extracellular fluid of brain at 400 mg/kg, iv; assay type: ADME, organism-based; set-up: dose 400 mg/kg, route intravenous
Parameter: Tmax (min)
Quick reminder: number only, in min, skip the unit.

Record request: Tmax value, item O=C([O-])CCCO.[Na+] [SODIUM OXYBATE]
50
